These entries and their values trace back to ChEMBL document CHEMBL4513216.

The entries below come with measured cytotoxicity at 10 µM values attached.
- protocolDescription: Toxicity liver stage against HepG2, at 10uM
- Type: cell-based
- Set-up: test concentration 10 uM, cell line HepG2-A16-CD81EGFP
- experimentalConditions: human, HepG2-A16-CD81EGFP cells; read-out: INHIBITION
Expressed in %, but write only the number.

Before answering, review these 10 worked examples.
compound="Fc1cnc(N2CC[C@@H]3OC(COCc4cccnc4)CC[C@@H]32)nc1 (some centres not stated)" measurementtype="cytotoxicity at 10 µM" unitabbrev=% numericvalue=9.94
compound=Clc1ccc(OCCNCCn2cccn2)cc1 measurementtype="cytotoxicity at 10 µM" unitabbrev=% numericvalue=-14.4
compound=COc1cccc(-c2ccc(CNC(=O)c3ccc(=O)n(C)c3)cc2)c1 measurementtype="cytotoxicity at 10 µM" unitabbrev=% numericvalue=22.3
compound=CC1=N[C@@]2(CC[C@@H]3CN(C(=O)NC(C)C)C[C@@H]32)C(=O)N1CC1CC1 measurementtype="cytotoxicity at 10 µM" unitabbrev=% numericvalue=7.1
compound="O=C(c1cnccn1)N1CCCC(C2=Nc3ccccc3S(=O)(=O)N2)C1 (configuration not stated)" measurementtype="cytotoxicity at 10 µM" unitabbrev=% numericvalue=-0.055
compound=Cc1cccc(N2CCN(CCC(=O)NCc3ccc(C)s3)CC2)c1 measurementtype="cytotoxicity at 10 µM" unitabbrev=% numericvalue=-0.432
compound="O=C(CCC1CCCO1)NCCN1CCCCC1 (configuration not stated)" measurementtype="cytotoxicity at 10 µM" unitabbrev=% numericvalue=-3.79
compound=COc1ccc(C(=O)NCc2cccnc2N2CCOCC2)o1 measurementtype="cytotoxicity at 10 µM" unitabbrev=% numericvalue=3.1
compound="O=C(O)c1c(-c2ccncc2)ncc2c1CCN(C1CCOC1)C2 (configuration not stated)" measurementtype="cytotoxicity at 10 µM" unitabbrev=% numericvalue=15
compound=Cc1ccc(NC2CCN(C(=O)c3ccc(C#N)cc3)CC2)nn1 measurementtype="cytotoxicity at 10 µM" unitabbrev=% numericvalue=-4.28

Exercise: Field request: cytotoxicity at 10 µM | item: CC(Cc1ccco1)NC(=O)NCc1ncnn1C (configuration not stated)
Solution: 2.02

Exercise: Please do the same for Cc1c(Cl)c(C(=O)NCc2ccc(F)cc2)nn1C as well.
Solution: -2.26

----------
- protocolDescription: Toxicity liver stage against HepG2, at 10uM
- Type: cell-based
- Design: test concentration 10 uM, cell line HepG2-A16-CD81EGFP
- experimentalConditions: human, HepG2-A16-CD81EGFP cells; read-out: INHIBITION
measurementType: cytotoxicity at 10 µM (%)
Just the number please, in %, no unit attached.

Some compounds with known cytotoxicity at 10 µM results, for comparison:
compound=CSCC(=O)N1C[C@@H]2CC[C@H]1CN(C1Cc3ccccc3C1)C2 numericvalue=-6.08
compound=Cc1nnc2n1CCN(C(=O)c1cn(-c3ccccc3Cl)nn1)C2 numericvalue=-4.55

Now for another entry.
Exercise: Entry CCc1nc(C2CCCN2C(=O)CCc2nc(C3CC3)no2)no1 (stereo unspecified) : reported cytotoxicity at 10 µM = ?
Solution: -2.66

----------
- protocolDescription: Toxicity liver stage against HepG2, at 10uM
- Type: cell-based
- Design: test concentration 10 uM, cell line HepG2-A16-CD81EGFP
- experimentalConditions: human, HepG2-A16-CD81EGFP cells; read-out: INHIBITION
measurementType: cytotoxicity at 10 µM
Answer format: number, then unit.

Example entries and their recorded answers appear below.
molecule="Cc1cnn(CC2CN(CCS(C)(=O)=O)CCO2)c1 (centres undefined)" result=-2.25%
molecule="Cc1cc(CC(=O)NC2CCCN(c3ccccc3Cl)C2=O)n[nH]1 (centres undefined)" result=3.55%
molecule=CCn1cc(CN2CCC(NS(C)(=O)=O)CC2)cc1C#N result=-4.18%
molecule="Cn1ccnc1C(O)c1ccccc1N1CCN(Cc2cccs2)CC1 (centres undefined)" result=5.03%
molecule="Cn1cncc1CN1CCOC(Cc2ccccc2)C1 (centres undefined)" result=9.43%
molecule=Cc1nsc(NCc2ccc(CS(=O)(=O)NC(C)C)cc2)n1 result=-2.8%
molecule=O=C(Cn1ccnc1)N1C[C@@H]2CC[C@H](Oc3ccccc3)[C@@H]2C1 result=-3.71%
molecule=CN(C)c1nc2c(c(NCc3nnc4n3CCCCC4)n1)CCNC2 result=-1.37%
molecule=Cc1noc(C)c1CN1C[C@@H](N(C)Cc2ccco2)[C@H]2OCCC[C@H]21 result=-70.9%
molecule=CC(C)Cc1nc(CN(C)CCOc2ccc(F)cc2)no1 result=-4.68%

Exercise: Recorded cytotoxicity at 10 µM of O=C(N1CCc2ccccc2CC1)C1(O)Cc2ccccc2C1 , please.
Solution: 10.8%

Exercise: Entry to check: COC(=O)N1CCCC(C(=O)Nc2nc(C)c(SC)s2)C1 (centres undefined)
Solution: 11.1%

Exercise: Now consider CCN1C(=O)CO[C@@H]2CN(C(=O)C3CCOCC3)C[C@H]21 and answer again.
Solution: -78.2%

Exercise: Next: CN1CCCN(C(=O)NCCOc2ccc3c(c2)OCO3)CC1
Solution: -17.5%

Exercise: Can you handle Cc1nc(C)n(CC2CCCN(Cc3ccc(C(N)=O)cc3)C2)n1 (centres undefined) next?
Solution: 0.818%

Exercise: Entry Fc1ccc(CN2CCC(F)(F)C3(CCN(c4cnccn4)C3)C2)cc1 (centres undefined) please
Solution: 8.62%

Exercise: Another molecule: NC(=O)C1CCN(CCc2ccc(NC(=O)C3CCC3)cc2)CC1
Solution: -3.86%

Exercise: Likewise for COCCN1CCC(CNC(=O)C2(c3ccc(F)cc3)CCC2)CC1 ?
Solution: -4.45%

Exercise: Item: N#Cc1ccc(CN2CCCCC2Cn2cccn2)cc1 (centres undefined)
Solution: -8.96%
